Sourced from PubChem BioAssay AID493211

- system: TRPC4 (mouse), transient receptor potential cation channel C4
- measurement protocol: agonist potency at mouse TRPC4 – cell-based, HEK293 TRPC4/mu-opioid, Fluo-4 calcium flux, dose response (AID 493211)
- measurement parameters: HEK293 TRPC4/mu-opioid cells, Fluo-4 calcium fluorescence ratio
measured quantity: pEC50
One number for each entry, as −log10 of the molar value.

Challenge: // fetch pEC50 given entry CN1CCN(c2ccc([N+](=O)[O-])c3cccnc23)CC1
Response given: 8.04
